targetSystem: Phosphatidylinositol 4,5-bisphosphate 3-kinase catalytic subunit gamma isoform (Homo sapiens, UniProt P48736)
Sequence (P48736 whole entry, canonical isoform): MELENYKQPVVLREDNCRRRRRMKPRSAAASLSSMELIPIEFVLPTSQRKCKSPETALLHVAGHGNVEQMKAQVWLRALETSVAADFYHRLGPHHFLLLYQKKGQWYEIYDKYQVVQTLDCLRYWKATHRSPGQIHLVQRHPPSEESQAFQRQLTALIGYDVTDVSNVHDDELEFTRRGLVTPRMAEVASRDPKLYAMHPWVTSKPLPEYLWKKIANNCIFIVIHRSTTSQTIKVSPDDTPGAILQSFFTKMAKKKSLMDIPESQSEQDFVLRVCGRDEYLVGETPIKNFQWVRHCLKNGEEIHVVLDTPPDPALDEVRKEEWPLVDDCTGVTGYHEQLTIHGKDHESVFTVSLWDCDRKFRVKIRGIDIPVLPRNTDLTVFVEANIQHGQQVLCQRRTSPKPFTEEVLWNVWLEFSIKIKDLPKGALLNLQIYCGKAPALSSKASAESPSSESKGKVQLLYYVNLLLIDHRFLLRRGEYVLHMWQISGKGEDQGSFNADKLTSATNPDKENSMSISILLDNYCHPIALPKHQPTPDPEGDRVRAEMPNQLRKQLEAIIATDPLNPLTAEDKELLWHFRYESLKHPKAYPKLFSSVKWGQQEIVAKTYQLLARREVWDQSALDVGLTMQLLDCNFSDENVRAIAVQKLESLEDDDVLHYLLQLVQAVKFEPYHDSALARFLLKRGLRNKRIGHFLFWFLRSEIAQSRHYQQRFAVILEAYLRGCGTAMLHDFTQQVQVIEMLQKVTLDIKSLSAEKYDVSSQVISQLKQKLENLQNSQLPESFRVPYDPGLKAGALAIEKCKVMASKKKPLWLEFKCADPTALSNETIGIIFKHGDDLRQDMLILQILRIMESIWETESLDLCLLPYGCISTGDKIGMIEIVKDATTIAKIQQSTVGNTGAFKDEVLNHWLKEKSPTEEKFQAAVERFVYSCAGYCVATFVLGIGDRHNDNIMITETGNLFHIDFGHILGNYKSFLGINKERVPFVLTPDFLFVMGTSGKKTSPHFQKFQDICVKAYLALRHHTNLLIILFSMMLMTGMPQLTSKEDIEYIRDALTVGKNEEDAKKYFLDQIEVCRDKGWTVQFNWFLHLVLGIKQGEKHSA
Field: pIC50. Provide a value for each of the compounds that follow.
Answers are plain numbers, as −log10 of the molar value.

Nc1nc2cc(-c3nc(N4CCOCC4)nc(N4CCOCC4)n3)ccc2o1 :: 6.89

Kindly review the next compound as well.
The measured pIC50 associated with `O=C(O)c1ccc(CNc2nc3ccc(-c4nc(N5CCOCC5)nc(N5CCOCC5)n4)cc3o2)cc1` reads 5.46

====

testDescription: Half life in Sprague-Dawley rat at 10 mg/kg, po measured after 24 hrs
Assay type: ADME, organism-based
condition: in vivo
readoutName: half-life

The measured half-life associated with `Nc1nc2cc(-c3nc(N4CCOCC4)nc(N4CCOCC4)n3)ccc2o1` reads > 600 min
